System: crabgrass
method: Test B pre/postemergence crabgrass
Format: in vivo, Digitaria sanguinalis
condition set: Preemergence, Rate 500 g/ha; scale of 0 to 10 where 0 is no effect and 10 is complete control
Each record here notes measured Plant response rating, Crabgrass.
Please give the numeric answer without any surrounding text.

compound | measured on | value
CC(C)N(C(=O)n1oc(=O)n(CNC(=O)c2ccccc2)c1=O)c1ccccc1 | crabgrass | 6
COC(=O)C(CCO)n1c(=O)on(C(=O)N(c2ccc(F)cc2)C(C)C)c1=O (centres unmarked) | crabgrass | 3

What value of Plant response rating, Crabgrass has been recorded for this entry: CCC(C)n1c(=O)on(C(=O)N(c2ccccc2)C(C)C)c1=O (centres unmarked) 10

Which measured Plant response rating, Crabgrass value corresponds to `C=C(C)CCn1c(=O)on(C(=O)N(c2ccc(F)cc2)C(C)C)c1=O` ? 10

Which Plant response rating, Crabgrass value is on record for `CC(C)N(C(=O)n1oc(=O)n(CC(C)(C)C)c1=O)c1ccc(F)cc1F` ? 10

# lookup: Plant response rating, Crabgrass of `CSc1ccc(N(C(=O)n2oc(=O)n(-c3ccccc3C)c2=O)C(C)C)cc1` 8

Given `C=C(Cl)Cn1c(=O)on(C(=O)N(c2ccc(F)cc2F)C(C)C)c1=O` , state its recorded Plant response rating, Crabgrass. 10

Record request: Plant response rating, Crabgrass value, item `CC(C)N(C(=O)n1oc(=O)n(CSC#N)c1=O)c1ccc(F)cc1` 2

====

Tested on: pigweed
method: Test B pre/postemergence pigweed
Type: in vivo, Amaranthus retroflexus
condition set: Rate 500 g/ha, Preemergence; scale 0 to 10 (0 no effect, 10 complete control)
Decision: Redroot pigweed plant response rating beneath 9 gives Yes; Redroot pigweed plant response rating meeting or exceeding 9 gives No.

Before answering, review these 3 worked examples.
compound | class name
CC(C)N(C(=O)n1oc(=O)n(C(C)C2CCC2)c1=O)c1ccc(F)cc1 (stereo not drawn) | Yes
CC(C)N(C(=O)n1oc(=O)n(CCN(C)C(=O)c2ccccc2)c1=O)c1ccc(F)cc1F | Yes
CC(C)N(C(=O)n1oc(=O)n(C[C@H](C)Cl)c1=O)c1ccc(Cl)cc1 | No

Input COC(=O)C(c1ccccc1)n1c(=O)on(C(=O)N(c2ccccc2)C(C)C)c1=O (stereo not drawn) ; condition: Redroot pigweed plant response rating strictly below 9. Does it hold? Yes

====

Test system: rape
method: Test B pre/postemergence rape
Type: in vivo, Brassica napus
condition set: Rate 62 g/ha, Postemergence; scale of 0 to 10 where 0 is no effect and 10 is complete control
measured parameter: Rape plant response rating

Below, 3 molecules whose answers are already recorded.
molecule | Rape plant response rating
CCC(CC)n1c(=O)on(C(=O)N(c2ccccc2)C(C)C)c1=O [Compound 354] | 0
CC(C)N(C(=O)n1oc(=O)n(C(C)C)c1=O)c1ccc(Cl)cc1 [Compound 114] | 3
CC(C)N(C(=O)n1oc(=O)n(Cc2ccco2)c1=O)c1ccc(F)cc1F [Compound 208] | 0

So what's the measured Rape plant response rating for this one? CC(C)N(C(=O)n1oc(=O)n(C(C)C)c1=O)c1ccc(F)cc1 [Compound 131] 1

// lookup Rape plant response rating for CSc1ccc(N(C(=O)n2oc(=O)n(-c3ccccc3C)c2=O)C(C)C)cc1 [Compound 205] 0

====

Known Redroot pigweed plant response rating of a selection of compounds
Tested on: pigweed
method: Test B pre/postemergence pigweed
Assay type: in vivo, Amaranthus retroflexus
condition set: Preemergence, Rate 500 g/ha; scale 0 (no effect) to 10 (complete control)
Description: […] At the same time, these crop and weed species were also treated with postemergence applications of test chemicals formulated in the same manner. […] Treated plants and controls were maintained in a greenhouse for twelve to sixteen days, after which all species were compared to controls and visually evaluated. […]
Form rule: numeric answer, no unit written next to it.

Solved entries (count: 4):
chemical smiles | measured on | value
CCN(CC)C(=O)n1oc(=O)n(Cc2cccs2)c1=O | pigweed | 0
Cc1ccccc1-n1c(=O)on(C(=O)N(c2ccc([N+](=O)[O-])cc2)C(C)C)c1=O | pigweed | 0
Cc1ccccc1-n1c(=O)on(C(=O)N(c2ccc(C(F)(F)F)cc2)C(C)C)c1=O | pigweed | 6
Cc1cc(C)c(-n2c(=O)on(C(=O)N(c3ccc(F)cc3)C(C)C)c2=O)c(C)c1 | pigweed | 0

Lab note: need Redroot pigweed plant response rating for `Cc1ccccc1-n1c(=O)on(C(=O)N(c2cc(F)cc(F)c2)C(C)C)c1=O` on pigweed, anyone have it? 10

====

System: giant foxtail
method: Test B pre/postemergence giant foxtail
Assay type: in vivo, Setaria faberii
condition set: Preemergence, Rate 500 g/ha; scale of 0 to 10 where 0 is no effect and 10 is complete control
measured parameter: Plant response rating, Giant foxtail
Could you respond with only the numeric value?

Use the examples below as a reference point.
compound | Plant response rating, Giant foxtail
CC(C)N(C(=O)n1oc(=O)n(C(CF)CF)c1=O)c1ccc(F)cc1F | 9
C=C(C)Cn1c(=O)on(C(=O)N(c2ccccc2)C(C)C)c1=O | 10
C=C(Cn1c(=O)on(C(=O)N(c2ccccc2)C(C)C)c1=O)c1cccc(Cl)n1 | 10

What Plant response rating, Giant foxtail value was documented for this compound, COC(=O)C(CCO)n1c(=O)on(C(=O)N(c2ccc(F)cc2)C(C)C)c1=O (stereo not shown) ? 4

// query Plant response rating, Giant foxtail value for entry `CC(C)N(C(=O)n1oc(=O)n(Cc2ccco2)c1=O)c1ccc(F)cc1F` 10

May I ask what Plant response rating, Giant foxtail has been recorded for `CC[C@H](C)n1c(=O)on(C(=O)N(c2ccc(Cl)cc2)C(C)C)c1=O` ? 10

Quick one: Plant response rating, Giant foxtail of `COCCn1c(=O)on(C(=O)N(c2ccc(F)cc2)C(C)C)c1=O` ? 10

Please report the recorded Plant response rating, Giant foxtail for `COCCn1c(=O)on(C(=O)N(c2ccc(F)cc2F)C(C)C)c1=O` . 10

Give its Plant response rating, Giant foxtail value. Item: `CC(C)N(C(=O)n1oc(=O)n(CSC#N)c1=O)c1ccc(F)cc1` 0

Item under review: CC(C)N(C(=O)n1oc(=O)n(CC2CCCCO2)c1=O)c1ccccc1 (stereo not shown) . Reported Plant response rating, Giant foxtail? 10

====

Tested on: purple nutsedge
method: Test B pre/postemergence purple nutsedge
Assay type: in vivo, Cyperus rotundus
condition set: Postemergence, Rate 125 g/ha; scale of 0 to 10 where 0 is no effect and 10 is complete control
In this section, each of the molecules is paired with its reported Nutsedge plant response rating.
Answer field: number only, no words.

Please review the entries below; each comes with its answer.
molecule | Nutsedge plant response rating
CC(C)N(C(=O)n1oc(=O)n(-c2ccnn2C)c1=O)c1ccc(F)cc1 [Compound 124] | 0
Cc1ccccc1-n1c(=O)on(C(=O)N(c2ccc(Br)cc2)C(C)C)c1=O [Compound 175] | 0

Query molecule follows.
Give its Nutsedge plant response rating value. Item: CC[C@H](C)n1c(=O)on(C(=O)N(c2ccc(Cl)cc2)C(C)C)c1=O [Compound 664] 0

====

Tested on: giant foxtail
method: Test B pre/postemergence giant foxtail
Format: in vivo, Setaria faberii
condition set: Preemergence, Rate 62 g/ha; scale 0 to 10 (0 no effect, 10 complete control)
Entries and their Plant response rating, Giant foxtail

compound | Plant response rating, Giant foxtail
CC(C)N(C(=O)n1oc(=O)n(CCC#N)c1=O)c1ccc(F)cc1 | 8
CC(C)N(C(=O)n1oc(=O)n(CCl)c1=O)c1ccc(F)cc1 | 0
CC(C)C(C)n1c(=O)on(C(=O)N(c2ccccc2)C(C)C)c1=O (stereo not shown) | 10

# get_value(readout='Plant response rating, Giant foxtail', item= `Cc1nsc(Cl)c1Cn1c(=O)on(C(=O)N(c2ccccc2)C(C)C)c1=O` ) 8

====

Test system: velvetleaf
method: Test B pre/postemergence velvetleaf
Format: in vivo, Abutilon theophrasti
condition set: Rate 62 g/ha, Postemergence; scale 0 to 10 (0 no effect, 10 complete control)
measured parameter: Velvetleaf plant response rating
Field format: numeric only.

For orientation, consider the following solved cases.
chemical smiles | Velvetleaf plant response rating
CC(C)N(C(=O)n1oc(=O)n(CC(=O)C2CC2)c1=O)c1ccccc1 | 0
Cc1ccccc1-n1c(=O)on(C(=O)N(c2ccc(OC(F)(F)F)cc2)C(C)C)c1=O | 0
CC(C)n1c(=O)on(C(=O)N(c2ccc(Cl)cc2Cl)C2CCC2)c1=O | 0
CCN(C(=O)n1oc(=O)n(C2CCCCC2)c1=O)C1CCCCC1 | 0
CC(C)N(C(=O)n1oc(=O)n(C(C)C)c1=O)c1cnccn1 | 0

Alright, here's another compound for you.
Report Velvetleaf plant response rating for `C=CCn1c(=O)on(C(=O)N(CC)C2CCCCC2)c1=O` please. 0

====

Test system: purple nutsedge
method: Test B pre/postemergence purple nutsedge
Format: in vivo, Cyperus rotundus
condition set: Preemergence, Rate 250 g/ha; scale 0 (no effect) to 10 (complete control)
Measured Nutsedge plant response rating, listed per entry.

What measured Nutsedge plant response rating goes with CC(C)N(C(=O)n1oc(=O)n(C(C)C2CCC2)c1=O)c1ccc(F)cc1 (stereo not shown) [Compound 718] ? 0
